Molecular target: Lethal factor (Bacillus anthracis) (UniProt P15917)
Sequence (P15917 whole entry, looked up): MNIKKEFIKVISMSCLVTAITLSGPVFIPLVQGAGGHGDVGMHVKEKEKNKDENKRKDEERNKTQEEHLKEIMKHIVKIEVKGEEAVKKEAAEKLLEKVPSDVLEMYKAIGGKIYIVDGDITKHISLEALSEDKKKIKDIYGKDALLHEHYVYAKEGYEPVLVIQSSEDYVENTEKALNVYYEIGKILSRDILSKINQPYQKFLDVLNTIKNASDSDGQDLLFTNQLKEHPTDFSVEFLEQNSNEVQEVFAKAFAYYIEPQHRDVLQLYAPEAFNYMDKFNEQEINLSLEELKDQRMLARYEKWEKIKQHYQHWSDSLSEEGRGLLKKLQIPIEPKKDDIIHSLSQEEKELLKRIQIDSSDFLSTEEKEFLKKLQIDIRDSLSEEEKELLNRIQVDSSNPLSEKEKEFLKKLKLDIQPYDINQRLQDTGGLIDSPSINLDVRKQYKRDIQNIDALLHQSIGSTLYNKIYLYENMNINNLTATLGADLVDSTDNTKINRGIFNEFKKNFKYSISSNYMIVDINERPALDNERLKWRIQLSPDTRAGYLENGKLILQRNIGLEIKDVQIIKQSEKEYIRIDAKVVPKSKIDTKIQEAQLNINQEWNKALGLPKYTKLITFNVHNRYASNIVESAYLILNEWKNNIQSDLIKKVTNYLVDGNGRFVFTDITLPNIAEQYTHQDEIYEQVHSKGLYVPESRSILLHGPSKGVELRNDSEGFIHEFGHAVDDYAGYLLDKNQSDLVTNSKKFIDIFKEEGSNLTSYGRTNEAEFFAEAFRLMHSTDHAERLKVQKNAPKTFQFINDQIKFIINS
Experiment: Lethal factor protease inhibitors, Bacillus anthracis, multiplex microsphere cleavage assay, validation set (AID 588461)
Conditions: flow cytometry, at 10 µM, hits give high values
OBSERVATION TYPE: inhibition (%)
Write the number in % without appending the unit.

Sample records with inhibition:
> print(dat)
                                   compound  value
1  CC(C)Oc1ccc(C(CC(=O)O)c2ccc(F)cc2)cc1 (stereo not drawn)    0.9
2        O=C1NCCN2CCCC12 (stereo not drawn)    5.9
3  CC(C)(C)c1ccc(C(O)CCCN2CCC(C(O)(c3ccccc3)c3ccccc3)CC2)cc1 (stereo not drawn)   -3.6

Request: Query: inhibition; subject: `CC(=O)NS(=O)(=O)c1ccc(N)cc1`
Result: 4.5

Request: Query: inhibition; subject: Cc1ncoc1C(=O)N1CCCC(C(=O)c2ccc(-c3ccccc3)c(F)c2)C1 (stereo not drawn)
Result: -5.3

Request: Query: inhibition; subject: CC(=O)OCC(=O)C1=CCC2C3CCC4=CC(=O)C=CC4(C)C3(F)C(OC(C)=O)CC12C (stereo not drawn)
Result: 2.4

Request: Query: inhibition; subject: COC1=CC(=O)CC(C)C12Oc1c(Cl)c(OC)cc(OC)c1C2=O (stereo not drawn)
Result: -1.8

Request: Query: inhibition; subject: `CCc1ccc(/C=C2\SC(=S)N(CCC(=O)N3CCN(C)CC3)C2=O)cc1`
Result: 4.9

FYI, the data here is from PubChem BioAssay.
